Reference source: a melting point compilation (Tetko et al.)

VALUE_KIND: melting point

A selection of reference data follows.
- MOLECULE: "COc1ccc(-n2nc(N)cc2C)cc1"
  VALUE_KIND: "melting point"
  RESULT: "87 to 89 °C"
- MOLECULE: "CN(C)S(=O)(=O)c1ccc(I)c(C(=O)O)c1"
  VALUE_KIND: "melting point"
  RESULT: "198 to 200 °C"
- MOLECULE: "FC(F)(F)c1nc(Cl)c2sccc2n1"
  VALUE_KIND: "melting point"
  RESULT: "95 to 97 °C"

Noted for Nc1ccc(Br)cc1O : its melting point reads 138 to 140 °C

Noted for CNC(=O)Cn1ccc2ccc(N)cc21 : its melting point reads 134 to 136 °C

Noted for Cc1ccc2ncccc2c1Br : its melting point reads 44 to 46 °C

Noted for Cc1c(C(=O)O)cnn1-c1cccc(C(F)(F)F)c1 : its melting point reads 122 to 124 °C

Noted for O=C(O)c1cc(S(=O)(=O)Cl)cc(Cl)c1Cl : its melting point reads 151 to 153 °C

Noted for Nc1ccc(S(=O)(=O)Nc2ccc(Cl)c(C(F)(F)F)c2)cc1 : its melting point reads 144 to 146 °C

Noted for NC(=O)c1ccc(OCC(=O)O)cc1 : its melting point reads 264 to 266 °C

Noted for CC(=O)NCCNC(=O)CCC(=O)O : its melting point reads 166 to 168 °C

* * *

Below is a list of entries, each paired with its recorded melting point value.

- MOLECULE: "Cc1cccc2c1CN(C(=O)OC(C)(C)C)CCN2"
  RESULT: "95 to 97 °C"
- MOLECULE: "O=C(O)C(c1ccccc1)N1C(=O)CCC1=O (centres undefined)"
  RESULT: "194 to 196 °C"
- MOLECULE: "Cn1ccnc1SCC(=O)Nc1cc(C(=O)O)ccc1Cl"
  RESULT: "223 to 225 °C"
- MOLECULE: "O=c1[nH]ccn(C2CC2)c1=O"
  RESULT: "161 to 163 °C"
- MOLECULE: "NC1CCCCNC1=O (centres undefined)"
  RESULT: "54 to 56 °C"

Noted for Nc1cc(Cl)ccc1C(=O)N1CCCCC1 : its melting point reads 103 to 105 °C

Noted for COc1ccc(NS(=O)(=O)c2c[nH]c(C(=O)O)c2)cc1Cl : its melting point reads 207 to 209 °C

Noted for CC(C)CCC1CCC(=O)NC1=O (centres undefined) : its melting point reads 117 to 119 °C

Noted for C#CCN1CCCCC1C(=O)O (centres undefined) : its melting point reads 177 to 179 °C

Noted for Nc1ccc(OCc2ccccc2)nc1 : its melting point reads 42 to 44 °C

Noted for FC(F)(F)c1cccc(-c2ncc[nH]2)c1 : its melting point reads 151 to 153 °C

Noted for Nc1nc(-c2ccc(O)cc2)n[nH]1 : its melting point reads 268 to 270 °C

Noted for O=C(O)c1ccc(Br)cc1S : its melting point reads 203 to 205 °C

Noted for Cc1cc(-c2nc3cc(F)ccc3s2)ccc1N : its melting point reads 191 to 193 °C

* * *

Below is a list of entries, each paired with its recorded melting point value.

A selection of reference data follows.
- MOLECULE: "Nc1nc(S)nc2sccc12"
  RESULT: "275 to 277 °C"
- MOLECULE: "Nc1ncn(Cc2ccc(Cl)cc2)n1"
  RESULT: "156 to 158 °C"
- MOLECULE: "NS(=O)(=O)c1cccs1"
  RESULT: "142 to 144 °C"

Noted for O=C(CCl)Nc1cc(F)ccc1F : its melting point reads 118 to 120 °C

Noted for Cc1cccc(CNc2ccc3[nH]c(=O)[nH]c3c2)c1 : its melting point reads 216 to 218 °C

Noted for COc1cc(OC)cc(C(=O)N2CCC(C(=O)O)CC2)c1 : its melting point reads 164 to 166 °C

Noted for CSCCC(NC(=O)c1ccco1)C(=O)O (stereo not given) : its melting point reads 185 to 187 °C

Noted for COc1cc(C=CC(=O)O)ccc1OCC#N : its melting point reads 164 to 166 °C

Noted for O=C(O)c1cc([N+](=O)[O-])c[nH]1 : its melting point reads 198 to 200 °C

Noted for Cc1nc(CSc2ccc(C(=O)O)cc2)cs1 : its melting point reads 87 to 90 °C

Noted for O=C(O)CC=Cc1cccc(F)c1 : its melting point reads 64 to 66 °C

Noted for O=C(CCCl)Nc1ccc(S(=O)(=O)N2CCCC2)cc1 : its melting point reads 174 to 176 °C

Noted for Cc1ccc(NC(=O)C(C)Cl)c(F)c1 (stereo not given) : its melting point reads 105 to 107 °C

Noted for O=C(O)C=Cc1ccc(S(=O)(=O)NCc2ccco2)cc1 : its melting point reads 213 to 215 °C

Noted for Cc1cc(=O)n2nc(N)sc2n1 : its melting point reads 335 to 337 °C

* * *

VALUE_KIND: melting point

A selection of reference data follows.
- SMILES_INPUT: "CCOC(=O)c1[nH]cnc1N"
  RESULT: "129 to 131 °C"
- SMILES_INPUT: "NC(=NO)C1CCCCC1"
  RESULT: "89 to 91 °C"
- SMILES_INPUT: "CC(C)(C)OC(=O)N1CCN(CC(=O)O)C(=O)C1"
  RESULT: "149 to 151 °C"

Noted for Cc1ccc(NS(=O)(=O)c2cccc(C(=O)O)c2)cc1 : its melting point reads 203 to 205 °C

Noted for O=C(O)c1ccccc1CSc1nc2ccccc2o1 : its melting point reads 175 to 177 °C

Noted for CC(C)(C)c1noc(N)n1 : its melting point reads 192 to 194 °C

Noted for O=C(O)c1cc2cccc(Cl)c2o1 : its melting point reads 243 to 245 °C

Noted for COc1cc(C(=O)O)ccc1OCC(=O)N1CCOCC1 : its melting point reads 162 to 164 °C

Noted for N#Cc1ccccc1Sc1ccccc1C(=O)O : its melting point reads 213 to 216 °C

Noted for Nc1nnc(-c2ccco2)s1 : its melting point reads 250 to 252 °C

* * *

Below is a list of entries, each paired with its recorded melting point value.

A selection of reference data follows.
- COMPOUND: "Cc1cc(F)ccc1S(=O)(=O)Nc1ccc(C(=O)O)cc1"
  melting point: "199 to 201 °C"
- COMPOUND: "Cc1ccc(C)c(OCCCCC(=O)O)c1"
  melting point: "56 to 58 °C"
- COMPOUND: "Cc1cccc(CSCC(=O)O)c1"
  melting point: "74 to 76 °C"

Noted for COC(=O)c1oc(CO)cc1C : its melting point reads 87 to 89 °C

Noted for CCC1(C)NC(=O)N(N)C1=O (stereo not drawn) : its melting point reads 153 to 155 °C

Noted for CC(NC(=O)OC(C)(C)C)C1CCNCC1 (stereo not drawn) : its melting point reads 103 to 105 °C

Noted for O=C1C(Br)=CC2C1C1C=CC2(Br)C12OCCO2 (stereo not drawn) : its melting point reads 171 to 173 °C

Noted for CC(Cl)C(=O)Nc1ccc2c(c1)OCCCO2 (stereo not drawn) : its melting point reads 97 to 99 °C

Noted for O=C(O)c1ccc(S(=O)(=O)NC2CCS(=O)(=O)C2)cc1 (stereo not drawn) : its melting point reads 303 to 305 °C

* * *

Below is a list of entries, each paired with its recorded melting point value.

A selection of reference data follows.
- COMPOUND: "NCc1ccc(-c2nc3ccccc3s2)o1"
  melting point: "124 to 126 °C"
- COMPOUND: "Clc1ccc(-n2cccn2)cn1"
  melting point: "107 to 109 °C"
- COMPOUND: "CCCCn1c2c(c(=O)n(C)c1=O)C(CC(=O)O)C(=O)N2 (centres undefined)"
  melting point: "229 to 231 °C"
- COMPOUND: "CC(=O)C(C#N)c1c(F)cccc1Cl (centres undefined)"
  melting point: "100 to 102 °C"
- COMPOUND: "O=C(O)c1cccc(S(=O)(=O)NC2CCCC2)c1"
  melting point: "209 to 211 °C"
- COMPOUND: "N#CCc1c[nH]c2cc(Cl)ccc12"
  melting point: "99 to 101 °C"
- COMPOUND: "Cc1cc(C)n2c(C=O)cnc2n1"
  melting point: "169 to 171 °C"
- COMPOUND: "O=S(=O)(c1ccccc1)c1ccc(O)cc1"
  melting point: "135 to 137 °C"

Noted for Nc1cc(C2CCOCC2)[nH]n1 : its melting point reads 103 to 105 °C

Noted for CC1CCN(C(N)=S)CC1 : its melting point reads 103 to 105 °C

Noted for Cn1ccnc1C(=O)c1ccccc1Cl : its melting point reads 99 to 101 °C

Noted for Cc1cccc(F)c1C(=O)O : its melting point reads 114 to 116 °C

Noted for CS(=O)Cc1c(C(=O)O)oc2ccccc12 (centres undefined) : its melting point reads 177 to 179 °C

Noted for COc1cc(CC#N)c(Br)cc1OC(F)F : its melting point reads 80 to 82 °C
